Recorded values, source patent US9796711B2.

TARGET SYSTEM: ΔF508-CFTR (Homo sapiens, UniProt P13569, DEL508-508)
Construct: host or cells: CFBE41o-, doxycycline-inducible
Sequence (P13569 with tags, fused parts or gaps DEL508-508): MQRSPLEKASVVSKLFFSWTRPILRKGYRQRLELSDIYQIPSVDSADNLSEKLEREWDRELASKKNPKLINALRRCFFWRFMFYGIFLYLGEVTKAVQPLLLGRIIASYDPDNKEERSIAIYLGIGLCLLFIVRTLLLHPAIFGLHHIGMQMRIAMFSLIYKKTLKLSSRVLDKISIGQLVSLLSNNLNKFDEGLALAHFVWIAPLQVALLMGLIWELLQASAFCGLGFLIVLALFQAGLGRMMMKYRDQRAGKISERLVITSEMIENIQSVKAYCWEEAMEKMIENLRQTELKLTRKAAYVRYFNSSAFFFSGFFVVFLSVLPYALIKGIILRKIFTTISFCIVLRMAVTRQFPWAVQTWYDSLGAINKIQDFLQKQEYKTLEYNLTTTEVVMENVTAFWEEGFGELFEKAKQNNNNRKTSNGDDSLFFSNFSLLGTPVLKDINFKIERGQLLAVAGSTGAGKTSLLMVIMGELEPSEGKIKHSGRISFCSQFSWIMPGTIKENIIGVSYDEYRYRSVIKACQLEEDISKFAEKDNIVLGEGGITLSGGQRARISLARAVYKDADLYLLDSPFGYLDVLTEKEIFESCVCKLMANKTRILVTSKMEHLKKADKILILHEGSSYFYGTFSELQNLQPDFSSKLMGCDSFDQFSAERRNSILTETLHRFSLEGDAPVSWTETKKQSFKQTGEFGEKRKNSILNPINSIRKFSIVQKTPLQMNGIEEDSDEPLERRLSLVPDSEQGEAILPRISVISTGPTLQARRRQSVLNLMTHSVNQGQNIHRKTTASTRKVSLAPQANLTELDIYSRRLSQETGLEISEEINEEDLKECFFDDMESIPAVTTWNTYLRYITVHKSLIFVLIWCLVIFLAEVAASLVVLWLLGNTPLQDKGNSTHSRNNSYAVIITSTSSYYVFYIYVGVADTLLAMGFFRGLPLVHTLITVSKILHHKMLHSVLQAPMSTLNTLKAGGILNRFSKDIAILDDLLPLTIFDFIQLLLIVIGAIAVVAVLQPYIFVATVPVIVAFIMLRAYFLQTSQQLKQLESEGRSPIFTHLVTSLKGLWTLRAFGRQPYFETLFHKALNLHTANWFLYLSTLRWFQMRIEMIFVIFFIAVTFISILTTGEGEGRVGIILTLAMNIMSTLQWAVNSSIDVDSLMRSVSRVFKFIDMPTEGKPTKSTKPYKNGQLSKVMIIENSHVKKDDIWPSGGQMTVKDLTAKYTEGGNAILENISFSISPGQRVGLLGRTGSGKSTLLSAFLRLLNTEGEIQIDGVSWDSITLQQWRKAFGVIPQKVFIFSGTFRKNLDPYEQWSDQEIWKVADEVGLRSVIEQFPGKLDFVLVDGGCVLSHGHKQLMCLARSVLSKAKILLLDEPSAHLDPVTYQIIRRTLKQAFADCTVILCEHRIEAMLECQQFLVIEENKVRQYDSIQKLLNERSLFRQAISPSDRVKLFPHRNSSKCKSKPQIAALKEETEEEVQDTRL
PROTOCOL DESCRIPTION: CFTR cell surface levels using HRP-tagged ΔF508-CFTR expressing CFBE cells, intrinsic corrector capacity
Assay type: cell-based
RUN CONDITIONS: HRP-tagged ΔF508-CFTR expressing CFBE cells; intrinsic corrector capacity (no co-corrector); 33° C., 20 hours
% Activation values for the compounds below.

COMPOUND: O=C(O)c1cc(N2CCN(CC(=O)N3CCCC3)CC2)c2c(C3CCC3)nn(-c3ccccc3)c2n1
% Activation (%): 144
--
COMPOUND: CC1(C)CC(c2nn(-c3ccccc3)c3nc(C(=O)O)cc(-c4ccc(N5CCC(C#N)CC5)nc4)c23)C1
% Activation (%): 175.73
--
COMPOUND: O=C(O)c1cc(CN2CCC(N3CCOCC3)CC2)c2c(C3CCC3)nn(-c3ccc(F)cc3)c2n1
% Activation (%): 55.75
--
COMPOUND: O=C(O)c1cc(N2CCC(F)CC2)c2c(C3CCC3)nn(-c3ccccc3)c2n1
% Activation (%): 111.15
--
COMPOUND: COCCN(C)C1CCN(c2cc(C(=O)O)nc3c2c(C2CCC2)nn3-c2ccc(F)cc2)CC1
% Activation (%): 178.2
--
COMPOUND: O=C(O)c1cc(N2CCC(CN3CCC4(CC3)COC4)CC2)c2c(C3CCC3)nn(-c3ccccc3)c2n1
% Activation (%): 164.4
--
COMPOUND: O=C(O)c1cc(OC[C@@H]2CCCO2)c2c(C3CCC3)nn(-c3ccccc3)c2n1
% Activation (%): 115.15
--
COMPOUND: CN(C)CC(CN(C)C)Oc1cc(C(=O)O)nc2c1c(C1CCC1)nn2-c1ccccc1
% Activation (%): 24.93
--
COMPOUND: O=C(O)c1cc(N2CCC(N3CCN(C4CC4)CC3)CC2)c2c(C3CCC3)nn(-c3ccc(F)cc3)c2n1
% Activation (%): 236.05
--
COMPOUND: N#CC1CN(C2CCN(c3cc(C(=O)O)nc4c3c(C3CCC3)nn4-c3ccc(F)cc3)CC2)CCO1 (stereo not drawn)
% Activation (%): 342.9
--
COMPOUND: CC(C)c1nn(-c2ccc(F)cc2)c2nc(C(=O)O)cc(N3CCC(C4CCN(C)CC4)CC3)c12
% Activation (%): 315
--
COMPOUND: CN(C)CCOc1cc(C(=O)O)nc2c1c(C1CCC1)nn2-c1ccccc1
% Activation (%): 49.14
--
COMPOUND: COCC1(OC)CCN(c2cc(C(=O)O)nc3c2c(C2CCC2)nn3-c2ccccc2)CC1
% Activation (%): 97.7
--
COMPOUND: CN(C[C@H]1CCN(c2cc(C(=O)O)nc3c2c(C2CCC2)nn3-c2ccccc2)C1)C(=O)OC(C)(C)C
% Activation (%): 118.8
--
COMPOUND: CC(C)c1nn(-c2ccc(F)cc2)c2nc(C(=O)O)cc(N3CCC(N4CCN(C5CC5)CC4)CC3)c12
% Activation (%): 254.1

----------
TARGET SYSTEM: ΔF508-CFTR (Homo sapiens, UniProt P13569, DEL508-508)
Construct: host or cells: CFBE41o-, doxycycline-inducible
PROTOCOL DESCRIPTION: CFTR cell surface levels using HRP-tagged ΔF508-CFTR expressing CFBE cells, intrinsic corrector capacity
Type: cell-based
RUN CONDITIONS: HRP-tagged ΔF508-CFTR CFBE41o- cells, compounds alone (intrinsic corrector capacity), 20 hours at 33° C.; read-out: EC50

MOLECULE: CC(C)c1nn(C2CCCCC2)c2nc(C(=O)O)cc(-c3ccc(N(C)C4CCOCC4)nc3)c12 [compound 169]
CENSOR SYMBOL: =
EC50 (µM): 0.448
--
MOLECULE: Cc1nn(-c2ccccc2)c2nc(C(=O)O)cc(-c3ccc(N4CC(C)(C)C4)cc3)c12 [compound 73]
CENSOR SYMBOL: =
EC50 (µM): 3.17
--
MOLECULE: O=C(O)c1cc(-c2ccc(N3CCOCC3)cc2)c2c(C3CCC3)nn(-c3cccc(C(F)(F)F)c3)c2n1 [compound 354]
CENSOR SYMBOL: =
EC50 (µM): 0.45
--
MOLECULE: CC(C)c1nn(-c2cc(F)cc(F)c2)c2nc(C(=O)O)cc(-c3ccc(N4CCOCC4)cc3)c12 [compound 268]
CENSOR SYMBOL: =
EC50 (µM): 0.616
--
MOLECULE: Cc1cccc(-n2nc(C(C)C)c3c(N4CC5(CCCCO5)C4)cc(C(=O)O)nc32)c1 [compound 274]
CENSOR SYMBOL: =
EC50 (µM): 1.08
--
MOLECULE: CC(C)(C)OC(=O)N1CCCC1c1nn(-c2ccccc2)c2nc(C(=O)O)cc(-c3ccc(N4CCOCC4)cc3)c12 (stereo not drawn) [compound 76]
CENSOR SYMBOL: =
EC50 (µM): 0.835
--
MOLECULE: CC(C)c1nn(-c2cccc(N3CC(F)C3)c2)c2nc(C(=O)O)cc(-c3ccc(N4CCOCC4)cc3)c12 [compound 167]
CENSOR SYMBOL: =
EC50 (µM): 0.596
--
MOLECULE: Cc1nn(-c2ccccc2)c2nc(C(=O)O)cc(-c3ccc(N4CCC(F)C4)cc3)c12 (stereo not drawn) [compound 28]
CENSOR SYMBOL: =
EC50 (µM): 1.18
--
MOLECULE: CC(C)c1nn(C2CCOC2)c2nc(C(=O)O)cc(-c3ccc(N4CCOCC4)cc3)c12 (stereo not drawn) [compound 120]
CENSOR SYMBOL: =
EC50 (µM): 3.34
--
MOLECULE: CC(C)c1nn(-c2cccc(N(C)C)n2)c2nc(C(=O)O)cc(-c3ccc(N4CCOCC4)cc3)c12 [compound 267]
CENSOR SYMBOL: =
EC50 (µM): 0.807
--
MOLECULE: Cc1nn(-c2ccccc2)c2nc(C(=O)O)cc(O[C@@H]3CCN(C)C3)c12 [compound 338]
CENSOR SYMBOL: =
EC50 (µM): 7.5
--
MOLECULE: Cc1nn(-c2cc(Cl)cc(Cl)c2)c2nc(C(=O)O)cc(-c3ccc(N4CCOCC4)cc3)c12 [compound 44]
CENSOR SYMBOL: =
EC50 (µM): 2.2
--
MOLECULE: CC(=O)N1CCC(n2nc(C(C)C)c3c(-c4ccc(N5CCOCC5)cc4)cc(C(=O)O)nc32)CC1 [compound 71]
CENSOR SYMBOL: >
EC50 (µM): 10
--
MOLECULE: Cc1cccc(-n2nc(C(C)C)c3c(N4CCC(C(F)(F)F)C4)cc(C(=O)O)nc32)c1 (stereo not drawn) [compound 215]
CENSOR SYMBOL: =
EC50 (µM): 1.03
--
MOLECULE: Cc1nn(-c2ccccc2)c2nc(C(=O)O)cc(O[C@H]3C[C@@H](N(C)C)C3)c12 [compound 340]
CENSOR SYMBOL: =
EC50 (µM): 7.5
